Biological target: T1, human ACVR2A (human, UniProt P27037 20-135, limits assumed); note: test concentration or dose not given here
T1 construct: coated antigen of the initial ELISA; also called activin receptor, type II A
T1 sequence (P27037 20-135 limits assumed): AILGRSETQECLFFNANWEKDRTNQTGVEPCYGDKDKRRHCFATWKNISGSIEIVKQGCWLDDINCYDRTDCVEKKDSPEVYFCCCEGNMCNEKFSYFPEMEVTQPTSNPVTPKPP
Test: ELISA
Procedure: The binding of ACVR2A-specific monoclonal antibodies to human ACVR2A, mouse ACVR2A, biotinylated goat anti-human kappa light chain (positive control) and human Fc (negative control) were determined by ELISA.
PROPERTY: optical density (OD)
Field: numeric (OD). Do not append units.

Consider the binder shown here: 373_H09 (antibody, V domains shown, Group III) VH: EVQLLESGGGLVQPGGSLRLSCAASGFTFSSYGMNWVRQAPGKGLEWVASINYNSGYKSYADSVKGRFTISRDNSKNTLYLQMNSLRAEDTAVYYCARGANWHDTHLDYWGQGTLVTVSS VL: DIQMTQSPSSLSASVGDRVTITCRASQSIITYLNWYQQKPGKAPKLVIYAATSRASGVPSRFSGSGSGTDFTLTISSLQPEDFATYYCQQSDDSPLTFGGGTKVEIK What is its recorded optical density? 0.93
